meta.source: ChEMBL document CHEMBL1833895

System: Lichtheimia corymbifera
Assay: Antifungal activity against Absidia corymbifera 272 after 24 hrs by microdilution method
Format: functional, organism-based
Details: Lichtheimia corymbifera, 272, 24 h
Reported IC80 values for the following molecules.
property: IC80

- smiles.notation: "O=C1C=CC(=O)C1=Cc1ccc(Cl)cc1"
  property: "IC80"
  result: "> 125 µM"
- smiles.notation: "COc1ccc(C=C2C(=O)C=CC2=O)cc1"
  property: "IC80"
  result: "> 250 µM"
- smiles.notation: "COC(/C=C/c1ccccc1)=C1\\C(=O)C=C(C)C1=O"
  property: "IC80"
  result: "31.2 µM"
- smiles.notation: "COc1ccc(/C=C/C=C2C(=O)C=CC2=O)cc1"
  property: "IC80"
  result: "> 500 µM"
- smiles.notation: "O=C1C=CC(=O)C1=Cc1ccc2ccccc2c1"
  property: "IC80"
  result: "125 µM"
- smiles.notation: "Cc1ccc(C=C2C(=O)C=CC2=O)cc1"
  property: "IC80"
  result: "> 250 µM"
- smiles.notation: "O=C1C=CC(=O)C1=Cc1ccc(F)cc1"
  property: "IC80"
  result: "> 125 µM"
- smiles.notation: "CN(C)c1ccc(C=C2C(=O)C=CC2=O)cc1"
  property: "IC80"
  result: "> 125 µM"
- smiles.notation: "O=C1C=CC(=O)C1=C/C=C/c1ccccc1"
  property: "IC80"
  result: "> 125 µM"
- smiles.notation: "O=C1C=CC(=O)C1=C/C=C/c1ccc(Cl)cc1"
  property: "IC80"
  result: "> 250 µM"
- smiles.notation: "OC(Cn1cncn1)(Cn1cncn1)c1ccc(F)cc1F"
  property: "IC80"
  result: "> 50 µM"
- smiles.notation: "O=C1C=CC(=O)C1=Cc1ccco1"
  property: "IC80"
  result: "250 µM"
- smiles.notation: "O=C1C=CC(=O)C1=Cc1cccc(Br)c1"
  property: "IC80"
  result: "> 125 µM"
